Each entry below carries its recorded cell viability.
- Tested on: U2OS
- Run description: cell viability relative to DMSO; higher = less toxic
- Measurement parameters: 72 h; 1000 nM
Expressed in %, but write only the number.

For orientation, consider the following solved cases.
CCn1c2ccccc2c2cc(CNCc3ccccc3OC)ccc21 [HLCL-61] : 102
CCC(CC)n1ccc2c(C(=O)NCc3c(C)cc(C)[nH]c3=O)cc(C#N)cc21 [EI1] : 96.1
OC[C@@H](O)[C@H]1O[C@@H]2O[C@H](C(Cl)(Cl)Cl)O[C@@H]2[C@H]1O [chloralose] : 99.6
CN1CCc2c(c3ccccc3n2Cc2ccccc2)C1 [mebhydrolin] : 98.2
CCOc1cncc(/C=C/CCNC)c1 [TC2559] : 101

Now look at this entry.
Query :: Sample `c1ccc(CN2CCC3(CCc4ccccc43)CC2)cc1` — what was its cell viability?
Result :: 99.6

Where these numbers come from: the supplement of paper PMC13380429
